# system-under-test: PI3Kα (p110[H1047R]/p85) kinase (Homo sapiens, UniProt P42336, H1047R)
# Sequence (P42336 whole entry H1047R): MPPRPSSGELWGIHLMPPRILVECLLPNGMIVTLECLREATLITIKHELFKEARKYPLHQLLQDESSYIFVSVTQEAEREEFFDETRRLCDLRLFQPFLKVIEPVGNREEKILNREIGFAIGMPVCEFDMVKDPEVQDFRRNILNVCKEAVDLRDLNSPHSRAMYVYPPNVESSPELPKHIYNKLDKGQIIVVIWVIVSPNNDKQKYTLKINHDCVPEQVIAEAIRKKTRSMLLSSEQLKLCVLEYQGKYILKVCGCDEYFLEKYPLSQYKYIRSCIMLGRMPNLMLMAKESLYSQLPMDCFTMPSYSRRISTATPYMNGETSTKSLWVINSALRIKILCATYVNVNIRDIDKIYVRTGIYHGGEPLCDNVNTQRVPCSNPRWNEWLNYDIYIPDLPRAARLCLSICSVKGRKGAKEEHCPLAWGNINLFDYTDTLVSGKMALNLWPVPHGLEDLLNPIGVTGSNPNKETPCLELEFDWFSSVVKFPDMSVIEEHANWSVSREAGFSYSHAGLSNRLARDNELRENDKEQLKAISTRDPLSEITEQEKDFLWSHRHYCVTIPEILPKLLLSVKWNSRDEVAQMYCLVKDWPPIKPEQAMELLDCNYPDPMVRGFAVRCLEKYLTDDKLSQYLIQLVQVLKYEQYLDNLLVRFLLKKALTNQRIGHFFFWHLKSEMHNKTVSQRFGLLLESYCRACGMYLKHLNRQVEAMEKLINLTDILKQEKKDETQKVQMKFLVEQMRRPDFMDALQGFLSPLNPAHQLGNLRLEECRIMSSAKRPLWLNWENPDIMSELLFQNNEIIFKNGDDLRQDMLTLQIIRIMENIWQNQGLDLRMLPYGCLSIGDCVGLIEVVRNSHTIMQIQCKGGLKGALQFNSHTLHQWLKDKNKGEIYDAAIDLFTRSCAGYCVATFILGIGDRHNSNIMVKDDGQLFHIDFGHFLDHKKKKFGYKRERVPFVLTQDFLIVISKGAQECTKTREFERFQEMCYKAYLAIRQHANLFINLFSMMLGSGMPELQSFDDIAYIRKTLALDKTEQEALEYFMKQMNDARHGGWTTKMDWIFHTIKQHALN
# Sequence (P27986 whole entry partner): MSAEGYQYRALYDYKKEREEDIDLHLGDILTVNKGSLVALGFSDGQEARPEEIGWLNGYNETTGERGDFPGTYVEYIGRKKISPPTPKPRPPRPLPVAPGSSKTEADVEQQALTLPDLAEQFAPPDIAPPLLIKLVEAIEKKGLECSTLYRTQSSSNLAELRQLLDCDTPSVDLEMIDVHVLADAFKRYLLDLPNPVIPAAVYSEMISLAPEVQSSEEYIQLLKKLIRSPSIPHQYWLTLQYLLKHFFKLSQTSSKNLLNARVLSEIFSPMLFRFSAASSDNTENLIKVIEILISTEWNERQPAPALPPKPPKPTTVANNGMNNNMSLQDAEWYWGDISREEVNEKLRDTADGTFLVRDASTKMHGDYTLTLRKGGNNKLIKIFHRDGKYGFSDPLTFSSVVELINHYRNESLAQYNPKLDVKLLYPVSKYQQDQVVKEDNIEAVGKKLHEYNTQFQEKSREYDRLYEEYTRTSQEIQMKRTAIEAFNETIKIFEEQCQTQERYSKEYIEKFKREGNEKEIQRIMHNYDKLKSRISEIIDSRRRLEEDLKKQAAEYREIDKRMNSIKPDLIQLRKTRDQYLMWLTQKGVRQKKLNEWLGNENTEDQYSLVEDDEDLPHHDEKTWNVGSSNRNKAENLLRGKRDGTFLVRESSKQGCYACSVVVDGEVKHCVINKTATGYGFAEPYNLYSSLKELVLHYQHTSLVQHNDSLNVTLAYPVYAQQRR
# test: PI3Kα (p110[H1047R]/p85) kinase ADP-Glo Assay
# study-conditions: 25 uM ATP
# Description: PI3Kα (p110[H1047R]/p85) kinase ADP-Glo Assay. Certain compounds disclosed herein were tested for inhibition of PI3Kα (p110[H1047R]/p85) kinase in assays based on the ADP-Glo™ Kinase Assay methodology. The assays were carried out in 384-well white plates in a reaction mixture containing PI3Kα (p110[H1047R]/p85) kinase, 25 µM ATP, 5.35 µg/ml PI(4,5)P2:PS Lipid Kinase Substrate and […] compound in buffer containing 50 mM HEPES pH7.5, 50 mM NaCl, 3 mM MgCl2, 0.0025% BSA and 2 mM DTT. […]
quantity-kind: IC50 (nM)

>>> df
                                   compound                         system_under_test  data_value
0  Cc1cc([C@@H](C)Nc2ccccc2C(=O)O)c2cc(-c3cnc(C(C)(C)O)nc3)n(C)c(=O)c2c1  PI3Kα (p110[H1047R]/p85) kinase (Homo sapiens, UniProt P42336, H1047R)        1210

(P) Cc1cc(C(C)Nc2ccccc2C(=O)O)c2cc(-c3ccc(-c4cnn(C)c4)cc3)n(C)c(=O)c2c1 (stereo not drawn)
(Q) Cc1cc(C(C)Nc2ccccc2C(=O)O)c2cc(-c3ccc(C#N)cc3)n(C)c(=O)c2c1 (stereo not drawn)
(R) Cc1cc([C@@H](C)Nc2ccccc2C(=O)O)c2cc(-c3ccc(F)cc3)n(CC#N)c(=O)c2c1
(S) CC#Cc1cc2c(C(C)Nc3ccccc3C(=O)O)cc(C)cc2c(=O)n1C (stereo not drawn)
Problem: Sort these compounds on IC50 so the largest reading comes first. To answer, arrange all of the labels according to the requested order.
Solution: S, Q, P, R

(I) Cc1cc(C(C)Nc2ccccc2C(=O)O)c2cc(-c3ccccc3C)n(C)c(=O)c2c1 (stereo not drawn)
(II) Cc1cc(C(C)Nc2cc3ccsc3cc2C(=O)O)c2cc(-c3ccccc3)n(C)c(=O)c2c1 (stereo not drawn)
Problem: Which of the two items, I and II , has the greater recorded IC50? Pick one and reply with its label.
Solution: II

(1) Cc1cc(C(C)Nc2ccccc2C(=O)O)c2cc(-c3ccc(C(C)(C)O)cc3)n(C)c(=O)c2c1 (stereo not drawn)
(2) Cc1cc(C(C)Nc2ccccc2C(=O)O)c2cc(-c3ccc(F)cc3)n(CC#N)c(=O)c2c1 (stereo not drawn)
Problem: Please indicate which entry, 1 or 2 , has the lower recorded IC50 value. Pick one and reply with its label.
Solution: 2
(2: 92 nM, 1: 247 nM)

###

# system-under-test: PI3Kα (p110/p85) kinase (wild type, "WT") (Homo sapiens)
# test: PI3Kα (p110/p85) kinase ADP-Glo Assay
# Type: biochemical
# study-conditions: 25 uM ATP
pIC50: −log10 of the molar value.
quantity-kind: pIC50

Field: example entries. Status: answers known.
>>> df
                                   compound  data_value
0  Cc1cc(C(C)Nc2ccccc2C(=O)O)c2cc(-c3ccccc3C#N)n(C)c(=O)c2c1 (stereo not drawn) [Example 32]        4.21
1  Cc1cc(C(C)Nc2ccccc2C(=O)O)c2cc(-c3ccccc3)n(C)c(=O)c2c1 (stereo not drawn) [Example 1]        5.56

(1) Cc1cc(C(C)Nc2ccccc2C(=O)O)c2cc(-c3ccccn3)n(C)c(=O)c2c1 (stereo not drawn) [Example 36]
(2) Cc1cc([C@@H](C)Nc2ccccc2C(=O)O)c2cc(-c3ccc(C(C)(C)O)cc3)n(C)c(=O)c2c1 [Example 98]
Problem: Please indicate which entry, 1 or 2 , has the lower recorded pIC50 value. Pick one and reply with its label.
Solution: 1
(1: 4.29, 2: 5.13)

###

# system-under-test: PI3Kα (p110/p85) kinase (wild type, "WT") (Homo sapiens, UniProt P42336)
# Sequence (P42336 whole entry): as the sequence (P42336 whole entry H1047R) above, with R1047H counted along it
# Sequence (P27986 whole entry partner): as the sequence (P27986 whole entry partner) above
# test: PI3Kα (p110/p85) kinase ADP-Glo Assay
# study-conditions: 25 uM ATP
quantity-kind: IC50 (µM)

Field: example entries. Status: answers known.
>>> print(df.to_string())
                                   compound  data_value
0  Cc1cc(C(C)Nc2ccccc2C(=O)O)c2cc(-c3ccc(C#N)cc3)n(C)c(=O)c2c1 (stereo not shown)        3.87
1  Cc1cc([C@@H](C)Nc2ccccc2C(=O)O)c2cc(-c3ccc(C(C)(C)O)nc3)n(C)c(=O)c2c1        17.1
2  Cc1cc(C(C)Nc2ccccc2C(=O)O)c2cc(-c3ccccc3F)n(C)c(=O)c2c1 (stereo not shown)        2.88
3  Cc1cc(C(C)Nc2ccccc2C(=O)O)c2cc(C(=O)Nc3ccccc3)n(C)c(=O)c2c1 (stereo not shown)        71.6

(1) Cc1cc(C(C)Nc2ccccc2C(=O)O)c2cc(-c3ccc(F)cc3)n(C3COC3)c(=O)c2c1 (stereo not shown)
(2) Cc1cc(C(C)Nc2ccccc2C(=O)O)c2cc(-c3ccc4nn(C)cc4n3)n(C)c(=O)c2c1 (stereo not shown)
(3) Cc1cc(C(C)Nc2ccccc2C(=O)O)c2cc(-c3ccc(F)c(F)c3)n(C)c(=O)c2c1 (stereo not shown)
Problem: Sort these compounds on IC50 so the largest reading comes first. To answer, arrange all of the labels according to the requested order.
Solution: 2, 1, 3
(2: 10.6 µM, 1: 4.33 µM, 3: 2.71 µM)

(a) Cc1cc(C(C)Nc2ccccc2C(=O)O)c2cc(-c3ccc4nc(C)sc4c3)n(C)c(=O)c2c1 (stereo not shown)
(b) Cc1cc(C(C)Nc2ccccc2C(=O)O)c2cc(-c3cccc4cn(C)nc34)n(C)c(=O)c2c1 (stereo not shown)
Problem: Please indicate which entry, a or b , has the lower recorded IC50 value. Pick one and reply with its label.
Solution: a

###

# system-under-test: PI3Kα (p110[H1047R]/p85) kinase (Homo sapiens, UniProt P42336, H1047R)
# test: PI3Kα (p110[H1047R]/p85) kinase ADP-Glo Assay
# Type: biochemical
# study-conditions: 25 uM ATP
pIC50: −log10 of the molar value.
quantity-kind: pIC50

Field: example entries. Status: answers known.
In [3]: df
Out[3]:
                                   compound  data_value
0  Cc1cc([C@H](C)Nc2ccccc2C(=O)O)c2cc(-c3cnc(C(C)(C)O)nc3)n(C)c(=O)c2c1 [Example 68]        4.66
1  Cc1cc(C(C)Nc2ccccc2C(=O)O)c2cc(-c3cncc(F)c3)n(C)c(=O)c2c1 (stereo not drawn) [Example 38]        6.57
2  CC(Nc1ccccc1C(=O)O)c1cccc2c(=O)n(C)c(-c3ccccc3)cc12 (stereo not drawn) [Example 20]        7.03
3  Cc1cc(C(C)Nc2ccccc2C(=O)O)c2cc(-c3cccc(C(C)(C)C#N)c3)n(C)c(=O)c2c1 (stereo not drawn) [Example 5]        6.43
4  Cc1cc(C(C)Nc2ccccc2C(=O)O)c2cc(-c3ccc4nn(C)cc4n3)n(C)c(=O)c2c1 (stereo not drawn) [Example 39]        6.04
5  Cc1cc(C(C)Nc2ccccc2C(=O)O)c2cc(-c3cnn(-c4cccc(C#N)c4)c3)n(C)c(=O)c2c1 (stereo not drawn) [Example 29]        6.59

(A) Cc1cc(C(C)Nc2ccccc2C(=O)O)c2cc(-c3ccc4nn(C)cc4c3)n(C)c(=O)c2c1 (stereo not drawn) [Example 19]
(B) COc1ccc(-c2cc3c(C(C)Nc4ccccc4C(=O)O)cc(C)cc3c(=O)n2C)cc1 (stereo not drawn) [Example 14]
(C) Cc1cc(C(C)Nc2ccccc2C(=O)O)c2cc(-c3ccc4c(c3)CN(C)C4=O)n(C)c(=O)c2c1 (stereo not drawn) [Example 70]
Problem: Number of compounds to sort: 3. Sort criterion: pIC50, ascending. To answer, arrange all of the labels according to the requested order.
Solution: C, A, B
(C: 6.06, A: 6.51, B: 6.81)

(1) Cc1cc(C(C)Nc2ccccc2C(=O)O)c2cc(-c3cnn(-c4ccc(C(N)=O)cn4)c3)n(C)c(=O)c2c1 (stereo not drawn) [Example 16]
(2) Cc1cc(C(C)Nc2ccccc2C(=O)O)c2cc(-c3ccc(C(F)(F)F)cc3)n(C)c(=O)c2c1 (stereo not drawn) [Example 49]
(3) Cc1cc(C(C)Nc2ccccc2C(=O)O)c2cc(NC(=O)c3ccccc3)n(C)c(=O)c2c1 (stereo not drawn) [Example 24]
Problem: Sort these compounds on pIC50 so the largest reading comes first. To answer, arrange all of the labels according to the requested order.
Solution: 1, 2, 3
(1: 6.62, 2: 6.34, 3: 5.99)

(a) Cc1cc(C(C)Nc2ccccc2C(=O)O)c2cc(-c3ccccc3F)n(C)c(=O)c2c1 (stereo not drawn) [Example 6]
(b) COc1ncc(-c2cc3c([C@@H](C)Nc4ccccc4C(=O)O)cc(C)cc3c(=O)n2C)cc1F [Example 59]
Problem: Which of the two items, a and b , has the greater recorded pIC50? Pick one and reply with its label.
Solution: a
(a: 6.79, b: 6.55)

(A) COc1cccc(-c2cc3c(C(C)Nc4ccccc4C(=O)O)cc(C)cc3c(=O)n2C)c1 (stereo not drawn) [Example 13]
(B) Cc1cc([C@@H](C)Nc2ccccc2C(=O)O)c2cc(-c3ccc(-c4cnn(C)c4)cc3)n(C)c(=O)c2c1 [Example 40]
Problem: Please indicate which entry, A or B , has the lower recorded pIC50 value. Pick one and reply with its label.
Solution: A
(A: 6.72, B: 7.26)
